Test system: Leishmania major
Assay: Antileishmanial activity against promastigote form of Leishmania major MHOM/IL/81/BNI after 96 hrs by resazurin-based spectrofluorimetric method
Format: functional, organism-based
observedProperty: IC50

>>> valuereported("CC(=O)Oc1ccc(-c2c(-c3ccccc3)nc3ccccn23)cc1")
"16 µM"
>>> valuereported("O=[N+]([O-])c1cccc(-c2c(-c3ccc(F)cc3)nc3ccccn23)c1")
"> 100 µM"
>>> valuereported("COc1ccc(-c2nc3ccccn3c2-c2cccc([N+](=O)[O-])c2)cc1")
"14 µM"
>>> valuereported("O=C(O)c1ccc(-c2c(-c3ccccc3)nc3ccccn23)cc1")
"> 100 µM"
>>> valuereported("CCOC(=O)c1ccc(-c2nc3ccccn3c2-c2ccccc2)cc1")
"40 µM"
>>> valuereported("Clc1cc(Cl)cc(-c2nc3ccccn3c2-c2cccnc2)c1")
"31.4 µM"
>>> valuereported("Oc1ccc(-c2c(-c3ccccc3)nc3ccccn23)cc1")
"40 µM"
>>> valuereported("COc1ccc(-c2c(-c3ccccc3)nc3ccccn23)cc1")
"7.2 µM"
>>> valuereported("O=[N+]([O-])c1ccc(-c2nc3ccccn3c2-c2ccccc2)cc1")
"30 µM"
